Where do the numbers come from? From patent US20170218449A1.

assay: physchem; details: plasma or biological fluid, kinetic from dmso stock
readout_kind: solubility (µM)

> print(dat)
                           molecule  value.observed
1  Nc1ccc(N)cc1 [p-Phenylendiamine]             566

----------
tested on: MUTZ-3 cells; experiment: cytotoxicity by Propidium Iodide, relative viability (Rv90); details: concentration yielding 90% relative viability, PI staining
readout_kind: Rv90 (µM)

> print(dat)
                                   compound  uom  value.observed
1                                    O=CC=O   µM             300
2                              Nc1ccc(N)cc1   µM              75
3    C=CC(=O)OCCO [2-Hydroxyethyl acrylate]   µM             100
4    O=[N+]([O-])c1ccc(Cl)c([N+](=O)[O-])c1   µM               4
5  CCCCCCCCCCCCOS(=O)(=O)[O-].[Na+] [Sodium dodecyl sulphate]   µM             200
6                                Nc1ccccc1O   µM             100
